SYSTEM: Organic anion transporter 3 (Homo sapiens, UniProt Q8TCC7)
Sequence (Q8TCC7 whole entry): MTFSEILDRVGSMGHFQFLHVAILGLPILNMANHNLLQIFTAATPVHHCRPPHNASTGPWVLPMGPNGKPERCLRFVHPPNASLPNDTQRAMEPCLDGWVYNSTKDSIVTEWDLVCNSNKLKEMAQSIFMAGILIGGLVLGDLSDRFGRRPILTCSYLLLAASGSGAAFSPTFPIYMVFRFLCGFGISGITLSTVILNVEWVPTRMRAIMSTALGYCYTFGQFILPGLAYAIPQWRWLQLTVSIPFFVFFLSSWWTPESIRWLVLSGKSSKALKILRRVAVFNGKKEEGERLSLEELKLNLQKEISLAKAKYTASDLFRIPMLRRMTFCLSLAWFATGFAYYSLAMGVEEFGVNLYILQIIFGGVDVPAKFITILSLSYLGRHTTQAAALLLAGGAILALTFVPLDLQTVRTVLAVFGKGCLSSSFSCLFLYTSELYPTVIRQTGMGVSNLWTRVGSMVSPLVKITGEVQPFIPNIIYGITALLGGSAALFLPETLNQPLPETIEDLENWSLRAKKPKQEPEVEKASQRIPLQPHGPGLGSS
TEST DETAILS: TP_TRANSPORTER: uptake in Xenopus laevis oocytes
Type: functional, cell-based
RUN PARAMETERS: oocyte
ENDPOINT: Activity

1) C[C@]12CC[C@@H]3c4ccc(O)cc4CC[C@H]3[C@@H]1CC[C@@H]2O[C@@H]1O[C@H](C(=O)O)[C@@H](O)[C@H](O)[C@H]1O [ESTRADIOL 17B GLUCURONIDE] :: substrate [+]
2) O=C(O)CCC(=O)O :: is not a substrate [-]
3) O=c1[nH]c(=O)c2[nH]c(=O)[nH]c2[nH]1 :: substrate [+]
4) O=C(O)[C@H]1O[C@@H](O)[C@H](O)[C@@H](O)[C@@H]1O [GLUCURONATE] :: is not a substrate [-]
5) C[C@]12CC[C@H](OS(=O)(=O)O)CC1=CC[C@@H]1[C@@H]2CC[C@]2(C)C(=O)CC[C@@H]12 :: substrate [+]
6) CCCC(CCC)C(=O)O :: is not a substrate [-]
7) CC(C)Cc1ccc(C(C)C(=O)O)cc1 (stereo unspecified) :: is not a substrate [-]
8) Nc1nc2c(ncn2COCCO)c(=O)[nH]1 :: is not a substrate [-]
9) O=C(O)CCCC(=O)O [GLUTARATE] :: substrate [+]
10) O=C(O)c1ccccc1O :: substrate [+]
11) C[C@@H]1Cc2c(Cl)cc(C(=O)N[C@@H](Cc3ccccc3)C(=O)O)c(O)c2C(=O)O1 [3R14S-OCHRATOXIN A] :: substrate [+]
